A collection of compounds and their measured Inhibition of CBS activity at 100 μM
# tested_system: CBS (Homo sapiens, UniProt P35520)
# Sequence (P35520 1-551): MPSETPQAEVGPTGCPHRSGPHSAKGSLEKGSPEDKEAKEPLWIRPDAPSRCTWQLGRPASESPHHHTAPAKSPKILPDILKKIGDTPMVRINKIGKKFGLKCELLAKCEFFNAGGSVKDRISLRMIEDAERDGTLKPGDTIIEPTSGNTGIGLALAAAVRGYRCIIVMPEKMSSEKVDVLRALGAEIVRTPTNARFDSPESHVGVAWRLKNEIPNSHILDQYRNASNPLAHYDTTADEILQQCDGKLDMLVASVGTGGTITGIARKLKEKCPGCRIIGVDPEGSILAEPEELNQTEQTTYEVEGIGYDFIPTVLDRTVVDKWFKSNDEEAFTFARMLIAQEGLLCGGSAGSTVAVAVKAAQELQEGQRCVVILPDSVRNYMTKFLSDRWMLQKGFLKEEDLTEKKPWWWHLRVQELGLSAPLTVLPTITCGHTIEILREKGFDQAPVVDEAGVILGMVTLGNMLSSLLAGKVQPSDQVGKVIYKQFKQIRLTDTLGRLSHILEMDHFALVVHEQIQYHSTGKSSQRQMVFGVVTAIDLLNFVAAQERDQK
# procedure_text: CBS inhibitor screen: H2S production by recombinant CBS (methylene blue assay)
# Format: biochemical
# Design: These studies used full-length human CBS enzyme; made in house; host or cells: E. coli BL21 (DE3) Codon Plus
# test_settings: 100 μM; homocysteine-induced H2S production; LOPAC library screen
# Experimental: Studies have been performed characterizing, in detail, the specificity and selectivity of all known H2S biosynthesis inhibitors, using recombinant CBS and CSE enzymes. […] Human recombinant CBS is expressed as described (Asimakopoulou et al, (2013) Br J Pharmacol. 169(4):922-32). […] In certain aspects H2S production is measured by the methylene blue assay (Asimakopoulou et al., (2013) Br J Pharmacol. 169(4):922-32). […]
I'd appreciate it if you included the unit after the number.

**Q:** Consider the compound Cl.NC[C@@H]1O[C@H](C23CC4CC(CC(C4)C2)C3)Cc2c1ccc(O)c2O [A-77636 hydrochloride] and give its recorded Inhibition of CBS activity at 100 μM.
**A:** 30%

**Q:** Consider the compound NC(Cc1cc(O)c(O)cc1O)C(=O)O (racemic) [6-Hydroxy-DL-DOPA] and give its recorded Inhibition of CBS activity at 100 μM.
**A:** 77%

**Q:** Consider the compound `CN(N=O)c1ccc(O)c(O)c1` and give its recorded Inhibition of CBS activity at 100 μM.
**A:** 85%

**Q:** Consider the compound CN1CC[C@@]2(C)c3cc(O)ccc3N(C)[C@@H]12.O=C(O)/C=C/C(=O)O [Eseroline fumarate] and give its recorded Inhibition of CBS activity at 100 μM.
**A:** 60%

**Q:** Consider the compound `C[n+]1c2cc(N)ccc2cc2ccc(N)cc21` and give its recorded Inhibition of CBS activity at 100 μM.
**A:** 64%

**Q:** Consider the compound `O=C1Nc2ccc(I)cc2/C1=C/c1cc(Br)c(O)c(Br)c1` and give its recorded Inhibition of CBS activity at 100 μM.
**A:** 87%

**Q:** Consider the compound CC[N+](C)(CC)CCC[n+]1c(-c2ccccc2)c2cc(N)ccc2c2ccc(N)cc21.[I-].[I-] [Propidium iodide] and give its recorded Inhibition of CBS activity at 100 μM.
**A:** 41%

* * *

# tested_system: CBS (Homo sapiens, UniProt P35520)
# procedure_text: CBS inhibitor screen: H2S production by recombinant CBS (methylene blue assay)
# Assay type: biochemical
# Design: These studies used full-length human CBS enzyme; made in house; host or cells: E. coli BL21 (DE3) Codon Plus
# test_settings: 100 μM; homocysteine-induced H2S production; LOPAC library screen; read-out: Inhibition of CBS activity at 100 μM
Structures can show the parent of a compound that is named as a salt.
A collection of molecules and their measured inhibition at 100 µM
Reply numerically in %, unit not repeated.

Worked examples, 5 molecules total:
>  <molecule>
CN(C)[C@@H]1C(O)=C(C(N)=O)C(=O)[C@@]2(O)C(O)=C3C(=O)c4c(O)cccc4[C@@](C)(O)[C@H]3C[C@@H]12

>  <unit_info>
%

>  <inhibition at 100 µM>
43

$$$$
>  <molecule>
CC(C)C(=O)c1c(C(C)C)nn2ccccc12

>  <unit_info>
%

>  <inhibition at 100 µM>
30

$$$$
>  <molecule>
CC1=C(/C=C/C(C)=C/C=C/C(C)=C/C(=O)O)C(C)(C)CCC1

>  <unit_info>
%

>  <inhibition at 100 µM>
43

$$$$
>  <molecule>
CCC1(c2ccccc2)NC(=O)N(C)C1=O (stereo not shown)

>  <unit_info>
%

>  <inhibition at 100 µM>
32

$$$$
>  <molecule>
O=C(c1ccc(OCCN2CCCCC2)cc1)c1c(-c2ccc(O)cc2)sc2cc(O)ccc12

>  <unit_info>
%

>  <inhibition at 100 µM>
60

$$$$

**Q:** Consider the molecule `C=C(c1ccc(C(=O)O)cc1)c1cc2c(cc1C)C(C)(C)CCC2(C)C` and give its recorded inhibition at 100 µM.
**A:** 58

**Q:** Consider the molecule `C[C@@](Cc1ccc(O)c(O)c1)(NN)C(=O)O` and give its recorded inhibition at 100 µM.
**A:** 45

**Q:** Consider the molecule `C[C@]12CC[C@@H]3c4ccc(O)cc4CC[C@H]3[C@@H]1CC[C@@H]2O` and give its recorded inhibition at 100 µM.
**A:** 53

**Q:** Consider the molecule `COc1cccc2c1C(=O)c1c(O)c3c(c(O)c1C2=O)C[C@@](O)(C(=O)CO)C[C@@H]3O[C@H]1C[C@H](N)[C@H](O)[C@H](C)O1` and give its recorded inhibition at 100 µM.
**A:** 52

**Q:** Consider the molecule CN(C)[C@@H]1C(O)=C(C(N)=O)C(=O)[C@@]2(O)C(O)=C3C(=O)c4c(O)ccc(Cl)c4[C@@H](O)[C@H]3C[C@@H]12 [Demeclocycline hydrochloride] and give its recorded inhibition at 100 µM.
**A:** 96

**Q:** Consider the molecule `CN1CC[C@@]2(C)c3cc(OC(=O)Nc4ccccc4)ccc3N(C)[C@@H]12` and give its recorded inhibition at 100 µM.
**A:** 53

**Q:** Consider the molecule `NOCC(=O)O` and give its recorded inhibition at 100 µM.
**A:** 98

**Q:** Consider the molecule `CC[C@H](c1ccc(O)cc1)[C@@H](CC)c1ccc(O)cc1` and give its recorded inhibition at 100 µM.
**A:** 50

**Q:** Consider the molecule `COC1=C(OC)C(=O)c2ccccc2C1=O` and give its recorded inhibition at 100 µM.
**A:** 98

**Q:** Consider the molecule `C[C@H]1c2cccc(O)c2C(=O)C2=C(O)[C@]3(O)C(=O)C(C(N)=O)=C(O)[C@@H](N(C)C)[C@@H]3[C@@H](O)[C@@H]21` and give its recorded inhibition at 100 µM.
**A:** 57

* * *

A collection of molecules and their measured inhibition at 100 µM
# tested_system: CBS (Homo sapiens, UniProt P35520)
# procedure_text: CBS inhibitor screen: H2S production by recombinant CBS (methylene blue assay)
# Format: biochemical
# Design: These studies used full-length human CBS enzyme; made in house; host or cells: E. coli BL21 (DE3) Codon Plus
# test_settings: 100 μM; homocysteine-induced H2S production; LOPAC library screen; read-out: Inhibition of CBS activity at 100 μM
Reply numerically in %, unit not repeated.

Worked examples, 2 molecules total:
>  <molecule>
Cc1c(C)c2c(c(C)c1O)CCC(C)(COc1ccc(CC3SC(=O)NC3=O)cc1)O2 (stereo not shown)

>  <tested_system>
CBS (Homo sapiens, UniProt P35520)

>  <reported_value>
30

$$$$
>  <molecule>
Cc1ccc(C(=O)Nc2ccc(S(=O)(=O)O)c3cc(S(=O)(=O)O)cc(S(=O)(=O)O)c23)cc1NC(=O)c1cccc(NC(=O)Nc2cccc(C(=O)Nc3cc(C(=O)Nc4ccc(S(=O)(=O)O)c5cc(S(=O)(=O)O)cc(S(=O)(=O)O)c45)ccc3C)c2)c1 [Suramin sodium]

>  <tested_system>
CBS (Homo sapiens, UniProt P35520)

>  <reported_value>
57

$$$$

**Q:** Look up and report measured inhibition at 100 µM (CBS (Homo sapiens, UniProt P35520)) for the following molecule: `CC(C)=CC[C@@H](O)C1=CC(=O)c2c(O)ccc(O)c2C1=O`
**A:** 51

* * *

# tested_system: CBS (Homo sapiens, UniProt P35520)
# procedure_text: CBS inhibitor screen: H2S production by recombinant CBS (methylene blue assay)
# Type: biochemical
# Set-up: These studies used full-length human CBS enzyme; made in house; host or cells: E. coli BL21 (DE3) Codon Plus
# test_settings: 100 μM; homocysteine-induced H2S production; LOPAC library screen; read-out: Inhibition of CBS activity at 100 μM
A collection of molecules and their measured inhibition at 100 µM
Reply numerically in %, unit not repeated.

Worked examples, 2 molecules total:
>  <molecule>
C=C1CC[C@H](O)C/C1=C/C=C1\CCC[C@]2(C)[C@@H]([C@H](C)CCCC(C)(C)O)CC[C@@H]12

>  <tested_system>
CBS (Homo sapiens, UniProt P35520)

>  <inhibition at 100 µM [%]>
32

$$$$
>  <molecule>
CC(C)(Sc1ccc(CCN(CCCCC2CCCCC2)C(=O)NC2CCCCC2)cc1)C(=O)O

>  <tested_system>
CBS (Homo sapiens, UniProt P35520)

>  <inhibition at 100 µM [%]>
73

$$$$

**Q:** Consider the molecule `C[C@@H](N)[C@H]1CC[C@H](C(=O)Nc2ccncc2)CC1` and give its recorded inhibition at 100 µM.
**A:** 94

**Q:** Consider the molecule `O=C(O)C1=CC(=C(c2ccc(O)c(C(=O)O)c2)c2ccc(O)c(C(=O)O)c2)C=CC1=O` and give its recorded inhibition at 100 µM.
**A:** 75

**Q:** Consider the molecule `COc1cc(C(=O)NS(=O)(=O)c2ccccc2C)ccc1Cc1cn(C)c2ccc(NC(=O)OC3CCCC3)cc12` and give its recorded inhibition at 100 µM.
**A:** 81

**Q:** Consider the molecule `C[C@H](CCC(=O)O)[C@H]1CC[C@H]2[C@@H]3CC[C@@H]4C[C@H](O)CC[C@]4(C)[C@H]3CC[C@]12C` and give its recorded inhibition at 100 µM.
**A:** 42

**Q:** Consider the molecule Cc1cc(C(C#N)c2ccc(Cl)cc2)c(Cl)cc1NC(=O)c1cc(I)cc(I)c1O (stereo not shown) and give its recorded inhibition at 100 µM.
**A:** 72
